Biological target: rat mGlu2 receptor (Rattus norvegicus (Rat), UniProt P31421)
Sequence (P31421 19-872): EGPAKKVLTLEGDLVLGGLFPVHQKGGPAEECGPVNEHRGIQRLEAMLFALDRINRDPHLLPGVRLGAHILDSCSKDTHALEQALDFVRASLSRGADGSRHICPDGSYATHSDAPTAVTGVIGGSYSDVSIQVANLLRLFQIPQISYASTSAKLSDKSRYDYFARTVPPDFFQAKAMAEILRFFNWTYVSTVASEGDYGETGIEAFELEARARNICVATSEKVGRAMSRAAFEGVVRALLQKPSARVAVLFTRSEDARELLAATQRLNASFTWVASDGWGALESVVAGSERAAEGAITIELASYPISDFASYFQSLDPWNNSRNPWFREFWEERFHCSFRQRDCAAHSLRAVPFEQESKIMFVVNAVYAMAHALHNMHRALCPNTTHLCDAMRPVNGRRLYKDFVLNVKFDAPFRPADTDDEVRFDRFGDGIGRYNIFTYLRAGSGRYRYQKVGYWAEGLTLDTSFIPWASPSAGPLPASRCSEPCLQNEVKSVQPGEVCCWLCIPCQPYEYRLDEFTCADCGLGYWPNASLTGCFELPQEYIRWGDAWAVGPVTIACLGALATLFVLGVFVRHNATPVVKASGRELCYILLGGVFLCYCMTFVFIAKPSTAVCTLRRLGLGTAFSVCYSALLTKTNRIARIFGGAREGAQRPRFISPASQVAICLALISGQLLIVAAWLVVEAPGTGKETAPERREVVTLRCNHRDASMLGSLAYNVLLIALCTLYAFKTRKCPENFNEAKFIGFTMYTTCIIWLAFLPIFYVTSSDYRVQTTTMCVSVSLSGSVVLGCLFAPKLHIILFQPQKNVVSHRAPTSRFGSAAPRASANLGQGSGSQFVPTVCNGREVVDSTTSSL
Assay: mGlu2 in vitro GIRK thallium flux assay
Assay type: cell-based
Conditions: NAM; 2.5 min compound incubation; EC80 glutamate; HEK-293 GIRK cells; read-out: mGlu2 EC50 (μM) (2.5 min)
Field: EC50. Provide a value for each of the compounds that follow.
Numbers only, in µM.

O=C(O)c1ccc(F)c(-c2cccc(-c3nc(-c4ccc(C(F)(F)F)nc4)cc(C(F)(F)F)n3)c2)c1: 0.83

The record that follows has no EC50 shown yet.
Field EC50 (entry `Cc1cc2c(cc1C(F)(F)F)NC(=O)CC(c1cccc(C#CCO)c1)=N2` ) reads 0.65
